# Lookup of reported GI50 keyed by entry
- Tested on: M14
- MEASUREMENT_DESCRIPTION: NCI tumour cell line growth inhibition, 48 h
Calls of active or inactive are those of the source. Rule as the data show it: active = GI50 up to about 1.1 µM and inactive = higher.

COMPOUND: COc1ccccc1C1C2=C(COC2=O)Oc2cc3c(cc21)OCO3 (configuration not stated)
TGT: M14
GI50: 1.4 µM (inactive)

COMPOUND: O=C1Nc2ccccc2S/C1=C\c1cccc(C(F)(F)F)c1
TGT: M14
GI50: > 100 µM (inactive)

COMPOUND: OC1C[C@H](c2ccccc2)C2(C(O)c3ccccc3C2O)[C@@H](c2ccccc2)C1 (some centres not stated)
TGT: M14
GI50: > 100 µM (inactive)

COMPOUND: O=C1OC(c2ccccc2)=N/C1=C\c1ccc(F)cc1
TGT: M14
GI50: > 100 µM (inactive)

COMPOUND: NNC(=O)CSc1nnc(CCCCCCCCc2nnc(SCC(=O)NN)o2)o1
TGT: M14
GI50: > 100 µM (inactive)

COMPOUND: Clc1nc(Cl)c(CBr)c(Cl)n1
TGT: M14
GI50: 2.91 µM (inactive)

COMPOUND: CCCCCCC(=O)OC[n+]1ccc(-c2c(COC(=O)NC(C)C)c(COC(=O)NC(C)C)c3n2CCC3)cc1
TGT: M14
GI50: > 87.9 µM (inactive)

COMPOUND: CCN1C/C(=C\c2ccc(Cl)cc2)c2[nH]c(=O)c(C#N)c(-c3ccc(Cl)cc3)c2C1
TGT: M14
GI50: > 100 µM (inactive)

[Q] Entry COC(=O)CCCC(=O)NC1=C(NCc2ccccc2)C(=O)c2ccccc2C1=O has what GI50?
[A] 29.6 µM (inactive)

[Q] Entry CC(C)(C)c1ccc(CN2CCN(C(c3ccccc3)c3ccc(Cl)cc3)CC2)cc1 (configuration not stated) has what GI50?
[A] 33.4 µM (inactive)

[Q] Entry COc1ccc2c(c1)[n+]([O-])c(C(=O)CC(=O)C(=O)Nc1cccc(C)c1C)c(C)[n+]2[O-] has what GI50?
[A] > 100 µM (inactive)

[Q] Entry CC1=CC(=O)N(n2c(C)n[nH]c2=O)C1=O has what GI50?
[A] > 100 µM (inactive)

[Q] Entry NC1=NC(=O)/C(=C/c2ccccc2[N+](=O)[O-])C(N)=N1 has what GI50?
[A] > 100 µM (inactive)

Reference for the values: ChEMBL document CHEMBL1201862
